test: qHTS for Inhibitors of human tyrosyl-DNA phosphodiesterase 1 (TDP1): qHTS in cells in absence of CPT; conditions: DT40 Tdp1-/- hTDP1 cells, no CPT, ATP luminescence, 48 h; also: nearly all actives have a fitted effect of over 55% in size
Hit rate of the full screen: of about 420,000 compounds, about 64,000 (15%) were called active. Inconclusive results (about 27%) are left out. Calls follow the shape of the dose curve; as a rule, active = well fitted inhibition curve with a large enough effect; inconclusive = small, poorly fitted or top-dose-only effect; inactive = flat fitted curve, though single readings scatter. Not all results are given here.
Would you mind answering with one of these outcomes? active, inactive

// known answers, use as guide
[
  {
    "compound": "COC(=O)c1ccc(C(=O)NC2CC(C)(C)Cc3c2cnn3-c2ccc(F)cc2)nc1 (stereo not given)",
    "assigned_label": "active"
  },
  {
    "compound": "NS(=O)(=O)c1ccccc1NC(=O)c1c(O)c2ccccc2[nH]c1=O",
    "assigned_label": "inactive"
  },
  {
    "compound": "Cc1ccc(-n2ncc3c2CC(C)(C)CC3NC(=O)Cc2c(C)noc2C)cc1 (stereo not given)",
    "assigned_label": "active"
  }
]

Pending compound:
**Query** Outcome logged for COc1ccc(/C(O)=C2/C(=O)C(=O)N(c3nc(C)c(C)s3)C2c2ccco2)cc1 (stereo not given) in this assay:
**Result** inactive

###

experiment: qHTS for Inhibitors of human tyrosyl-DNA phosphodiesterase 1 (TDP1): qHTS in cells in absence of CPT; conditions: DT40 Tdp1-/- hTDP1 cells, no CPT, ATP luminescence, 48 h; also: nearly all actives have a fitted effect of over 55% in size
In all, about 420,000 compounds went through this assay and about 64,000 (15%) were called active. Not shown: some 27% with an inconclusive outcome. Calls come from the whole dose curve; as a rule, active = well fitted inhibition curve with a large enough effect; inconclusive = small, poorly fitted or top-dose-only effect; inactive = flat fitted curve, though single readings scatter. A selection follows.
Mark one answer only. Choices: yes for active, no for inactive

**Query** Which outcome did this test record for the molecule COc1ccc2oc(=O)c(C(=O)N3CCN(c4ccccc4F)CC3)cc2c1 ?
**Result** no

**Query** # outcome recorded in this test, key = CNC(=S)N1CCC(NC(=O)C(Cc2ccc(F)cc2)NC(C)=O)CC1 (stereo unspecified)
**Result** no

**Query** What is the recorded call for this molecule in the test? CC(C)c1ccc(NC(=S)NNc2ccc(Cl)c(C(=O)O)c2)cc1
**Result** no

###

assay: qHTS for Inhibitors of human tyrosyl-DNA phosphodiesterase 1 (TDP1): qHTS in cells in absence of CPT; conditions: DT40 Tdp1-/- hTDP1 cells, no CPT, ATP luminescence, 48 h; also: nearly all actives have a fitted effect of over 55% in size
Screen size: about 420,000 compounds; about 64,000 (15%) were called active. Not shown: some 27% with an inconclusive outcome. Calls come from the whole dose curve; as a rule, active = well fitted inhibition curve with a large enough effect; inconclusive = small, poorly fitted or top-dose-only effect; inactive = flat fitted curve, though single readings scatter. These entries were drawn from the full list.
The reply should be one of these categories: active, inactive

[
  {
    "molecule": "Cc1ccc(S(=O)(=O)NCCC(c2ccccc2)c2ccccc2)cc1C(=O)O",
    "assigned_label": "inactive"
  }
]

**Query** Which outcome was entered for the molecule COc1ccc(Cl)cc1NC(=O)COc1ccc2c(c1)OCO2 in this test?
**Result** inactive

**Query** Outcome logged for Cc1ccc(Cn2c(=O)n(-c3ccc(C)cc3)c(=O)c3c2c2cc(C)ccc2n3C)cc1 in this assay:
**Result** inactive

**Query** Outcome logged for Cc1ccc(CC2C(=O)N(c3ccc(F)cc3)C(=O)C2C)cc1 (centres undefined) in this assay:
**Result** inactive

**Query** Which outcome was entered for the molecule CN1CCC[C@@H]1CCO[C@](C)(c1ccccc1)c1ccc(Cl)cc1 in this test?
**Result** active

**Query** Outcome logged for COc1ccc(C(CNCC(=O)Nc2ccccc2F)N(C)C)cc1 (centres undefined) in this assay:
**Result** inactive

###

assay: qHTS for Inhibitors of human tyrosyl-DNA phosphodiesterase 1 (TDP1): qHTS in cells in absence of CPT; settings: DT40 Tdp1-/- hTDP1 cells, no CPT, ATP luminescence, 48 h; also: nearly all actives have a fitted effect of over 55% in size
The whole screen tested about 420,000 compounds, of which about 64,000 (15%) were called active. Another 27% or so got no clear call; they are omitted. Calls come from the whole dose curve; as a rule, active = well fitted inhibition curve with a large enough effect; inconclusive = small, poorly fitted or top-dose-only effect; inactive = flat fitted curve, though single readings scatter. Only a sample is shown.
Result category, one only: T for active, F for inactive

Solved entries:
[
  {
    "compound": "COc1ccc2[nH]c(C(=O)Nc3ccccc3Cl)cc2c1",
    "assigned_label": "F"
  },
  {
    "compound": "COc1ccccc1-c1nnc(NC(=O)c2cccc(N3C(=O)CCC3=O)c2)o1",
    "assigned_label": "F"
  },
  {
    "compound": "C=C(C)CNC(=S)N/N=C/c1ccccc1OCC(=O)O",
    "assigned_label": "F"
  },
  {
    "compound": "COc1cccc(Cn2c(=O)c(-c3cc(F)cc(F)c3)nc3cnc(OC)nc32)c1",
    "assigned_label": "T"
  },
  {
    "compound": "CCOC(=O)c1ccc2[nH]c3c(c2c1)CCCC3NC=O (stereo not drawn)",
    "assigned_label": "F"
  },
  {
    "compound": "CCOc1ccccc1/C=N/NC(=O)CNC(=O)COc1ccccc1",
    "assigned_label": "F"
  },
  {
    "compound": "Cc1cc(Nc2ccc(C(=O)N3CCCCC3)cc2)c2cccc(C)c2n1",
    "assigned_label": "F"
  },
  {
    "compound": "COC(=O)c1onc(-c2c(OC)cc(OC)cc2OC)c1C(=O)OC",
    "assigned_label": "F"
  },
  {
    "compound": "O=C1c2cccc3cccc(c23)C(=O)N1c1cccc(O)c1",
    "assigned_label": "F"
  },
  {
    "compound": "COc1ccc(C(=O)NNC(=O)c2cnccn2)cc1[N+](=O)[O-]",
    "assigned_label": "F"
  }
]

**Query** What is the recorded call for this compound in the test? C=CCNC(=S)NNC(=O)c1ccc(Br)o1
**Result** F

**Query** Each compound tested received a call. Report the one for Cc1ccc(C(=O)Nc2nnc(C3=COCCO3)o2)cc1C .
**Result** T

**Query** Tell me the assay call for O=S(=O)(/C=C/c1ccccc1)NCCc1ccccn1 please.
**Result** F

**Query** How was CN(C)c1cccc(C(=O)N2CCC(n3nccc3NC(=O)C3CCOC3)CC2)c1 (stereo not drawn) classified in this test?
**Result** F

**Query** Called result for CCOc1ccc2[nH]c(C(=O)N/N=C/c3cccc(OC)c3OC)cc2c1
**Result** T

**Query** Hey, what did the test say about O=C(CC1Sc2ccccc2NC1=O)NNc1ccc(Cl)c(Cl)c1 (stereo not drawn) ?
**Result** T

**Query** GET /call?item= COc1ccc(/C=N/NC(=O)c2cccc(C(F)(F)F)c2)cc1 returns the recorded outcome of this test.
**Result** F

**Query** Fill in: this test's call for COCCn1c(=O)c(CCc2ccccc2)nc2cncnc21 is ___
**Result** F

**Query** What is the recorded call for this compound in the test? COc1cc2cc(C(=O)N/N=C/c3cccc(OC)c3OC)[nH]c2cc1OC
**Result** T

**Query** Hey, what did the test say about C=CCNC(=S)N/N=C/c1ccc(C)s1 ?
**Result** T

###

test: qHTS for Inhibitors of human tyrosyl-DNA phosphodiesterase 1 (TDP1): qHTS in cells in absence of CPT; settings: DT40 Tdp1-/- hTDP1 cells, no CPT, ATP luminescence, 48 h; also: nearly all actives have a fitted effect of over 55% in size
Hit rate of the full screen: of about 420,000 compounds, about 64,000 (15%) were called active. Another 27% or so got no clear call; they are omitted. Calls follow the shape of the dose curve; as a rule, active = well fitted inhibition curve with a large enough effect; inconclusive = small, poorly fitted or top-dose-only effect; inactive = flat fitted curve, though single readings scatter. Only a sample is shown.
Pick from t for active, f for inactive when you respond.

Below, 5 molecules whose answers are already recorded.
[
  {
    "molecule": "CC(CC(=O)Nc1ccccc1)n1ccnc1 (stereo not drawn)",
    "assigned_label": "f"
  },
  {
    "molecule": "N=C(N)SCc1cccc2ccccc12",
    "assigned_label": "t"
  },
  {
    "molecule": "COCCN(C(=O)CC1CCCCC1)c1c(N)n(CC(C)C)c(=O)[nH]c1=O",
    "assigned_label": "f"
  },
  {
    "molecule": "O=C(O)c1ccccc1NC(=S)NC(NC(=O)c1ccccc1[N+](=O)[O-])C(Cl)(Cl)Cl (stereo not drawn)",
    "assigned_label": "f"
  },
  {
    "molecule": "CCN(CC)CCCNC(=O)CCn1nc(-c2ccc(Cl)cc2)ccc1=O",
    "assigned_label": "f"
  }
]

Lab note: next molecule to report on.
**Query** For O=C(CN1C(=O)c2cccc3cccc(c23)C1=O)N1CCCCC1 , which call appears in the assay record?
**Result** f

###

assay: qHTS for Inhibitors of human tyrosyl-DNA phosphodiesterase 1 (TDP1): qHTS in cells in absence of CPT; settings: DT40 Tdp1-/- hTDP1 cells, no CPT, ATP luminescence, 48 h; also: nearly all actives have a fitted effect of over 55% in size
Hit rate of the full screen: of about 420,000 compounds, about 64,000 (15%) were called active. About 27% were inconclusive and are not listed. Calls follow the shape of the dose curve; as a rule, active = well fitted inhibition curve with a large enough effect; inconclusive = small, poorly fitted or top-dose-only effect; inactive = flat fitted curve, though single readings scatter. These entries were drawn from the full list.
Pick from 1 (active), -1 (inactive) when you respond.

[
  {
    "compound": "CC1(C)CCc2nc(SCc3ccccc3)c(C#N)cc2C1",
    "assigned_label": -1
  },
  {
    "compound": "COc1cc2c(cc1OC)C(c1ccc(C)o1)CC(=O)N2 (centres undefined)",
    "assigned_label": -1
  },
  {
    "compound": "O=C(Cc1ccccc1)N1CCN(S(=O)(=O)c2ccc([N+](=O)[O-])cc2)CC1",
    "assigned_label": -1
  },
  {
    "compound": "COc1ccccc1C1=Nc2cccc3cccc(c23)N1",
    "assigned_label": 1
  },
  {
    "compound": "CC1(C)NC(=O)N(CC(=O)Nc2cc(C(F)(F)F)cc(C(F)(F)F)c2)C1=O",
    "assigned_label": -1
  }
]

**Query** Could you check what this test reported for CC1CCCCN1CC(=O)NCc1ccc2c(c1)OCO2 (centres undefined) ?
**Result** -1

**Query** Returns: the outcome recorded for C/C(=N\NC(=S)NCc1ccccc1)C1CCCCC1 in this assay.
**Result** 1
